These entries and their values trace back to ChEMBL document CHEMBL2010803.

- System: Radical scavenging activity
- test.method.notes: Antioxidant activity assessed as DPPH free radical scavenging activity at 100 uM after 20 mins by spectrophotometric analysis
- Format: functional
Active and inactive are the calls of the source. The rule behind the calls is not given here.
reported.endpoint: Activity

{"molecule": "CC(C)Cc1ccc(C(C)C(=O)NNC(=O)NNC(=O)NOCc2ccccc2)cc1 (stereo not given)", "target.or.system": "Radical scavenging activity", "Activity": "11%"}
{"molecule": "CC(C(=O)NNC(=O)NCCc1ccccc1)c1cccc(Cc2ccccc2)c1 (stereo not given)", "target.or.system": "Radical scavenging activity", "Activity": "8%"}
{"molecule": "CC(C(=O)NNC(=O)NNC(=O)NO)c1cccc(Cc2ccccc2)c1 (stereo not given)", "target.or.system": "Radical scavenging activity", "Activity": "28%"}
{"molecule": "CC(C(=O)NNC(=O)NNC(=O)NO)c1cccc(Oc2ccccc2)c1 (stereo not given)", "target.or.system": "Radical scavenging activity", "Activity": "23%"}
{"molecule": "CC(C(=O)NNC(=O)NC(c1ccccc1)c1ccccc1)c1cccc(Cc2ccccc2)c1 (stereo not given)", "target.or.system": "Radical scavenging activity", "Activity": "4%"}
{"molecule": "CC(C(=O)NNC(=O)NC1CCCCC1)c1cccc(Cc2ccccc2)c1 (stereo not given)", "target.or.system": "Radical scavenging activity", "Activity": "3%"}

q: Please look up its Activity: CC(C)Cc1ccc(C(C)C(=O)NNC(=O)NO)cc1 (stereo not given)
a: 29%

q: I would be grateful if you could share the reported Activity for CC(C)Cc1ccc(C(C)C(=O)NN)cc1 (stereo not given) .
a: inactive

q: Which value of Activity has been reported for CC(C(=O)NNC(=O)NO)c1cccc(Oc2ccccc2)c1 (stereo not given) in the records?
a: 39%

q: Please report the recorded Activity for CC(C)Cc1ccc(C(C)C(=O)NNC(=O)NNC(=O)NO)cc1 (stereo not given) .
a: 24%

q: Returns the measured Activity for the input molecule. Input: CC(C)Cc1ccc(C(C)C(=O)NNC(=O)NCCc2ccccc2)cc1 (stereo not given)
a: inactive

---

Activity: recorded values
- System: Radical scavenging activity
- test.method.notes: Antioxidant activity assessed as DPPH free radical scavenging activity at 100 uM after 20 mins by spectrophotometric analysis
- Assay type: functional

Some solved entries appear below for comparison.
{"compound": "CC(C(=O)NNC(=O)NCCc1ccccc1)c1cccc(Oc2ccccc2)c1 (centres undefined)", "target.or.system": "Radical scavenging activity", "result": "4%"}
{"compound": "CC(C(=O)NNC(=O)NC(c1ccccc1)c1ccccc1)c1cccc(Oc2ccccc2)c1 (centres undefined)", "target.or.system": "Radical scavenging activity", "result": "2%"}

q: Find the recorded Activity belonging to CC(C(=O)NNC(=O)NCC1CCCCC1)c1cccc(Oc2ccccc2)c1 (centres undefined) and report it.
a: 18%
